ASSAY_TARGET: T1, human TMEM106B (human, UniProt Q9NUM4 2-274)
T1 construct: Full-length cDNA transiently transfected into HEK293 cells; also called huTMEM106B
PROTOCOL_DESCRIPTION: flow cytometry, HEK293 cells transiently transfected with human TMEM106B
REPORTED_METRIC: fold-change in binding over parental HEK293 cells (fold)
Provide the reading as a plain figure in fold.

Return value of fold-change in binding over parental HEK293 cells for input TM-94 (antibody, V domains shown, Purified from mouse hybridoma) VH: EVQLQQSGPELVKPGASVKIPCKASGYTFTDYNMDWVKQSHGKSLEWIGDINPYNGGTLYNQKFKGKATLTVDKSSNTAYMEIRSLTYEDTAVYYCARVGYHGTPDYWGQGTTVTVSS VL: DVVMTQTPLSLPVSLGDQASISCRSSQSLVYSNGNTYLHWYLQRPGQSPKLLIYKVSNRFSGVPDRFSGSGSGTDFTLKISRVEAEDLGVYFCSQSTHVYTFGGGTKLEIK , no commentary. 3.79

Return value of fold-change in binding over parental HEK293 cells for input TM-87 (antibody, V domains shown, Purified from mouse hybridoma) VH: EVQLQQSGPVLVKPGASVKLSCKASGYTFTDYYMNWVKQSHGKSLEWIGVINPYNGATSYNQKFQDKATLTVDKSSSTAYMGLNSLTSEDSAVYYCANGNYDWYFDVWGTGTTVTVSS VL: DVQITQSPSYLAASPGETITINCRASRSISKYLAWYQEKPGKTNKLLIYSGSTLQSGIPSRFSGSGSGTDFTLTISSLEPEDFAVYYCQQHNEYPLTFGAGTKLELK , no commentary. 12.8
